Reported melting point values are given for each entry in this list.
Counter-ions that a name gives are not always drawn.

MOLECULE	melting point
Cl.NC(=Nc1ccc(-c2c[nH]c(CCC3CCCCC3)n2)cc1)c1cccs1	196.2 °C
CCCCOC(=O)NCCc1nc(-c2ccc(-c3ccc(N=C(N)c4cccs4)cc3)cc2)c[nH]1 (as salt: hydrochloride)	97 to 98 °C
Cl.NC(=Nc1ccc(-c2c[nH]c(CNCc3ccccc3)n2)cc1)c1cccs1	228 to 229 °C
CCCCN(CCc1nc(-c2cccc(/N=C(/N)c3cccs3)c2)c[nH]1)C(=O)O.Cl	210 to 212 °C
Cl.NC(=Nc1ccc(-c2c[nH]c(CNC3CCCCCC3)n2)cc1)c1cccs1	264 to 265 °C
Cl.NC(=Nc1cccc(-c2c[nH]c(C/N=C(/N)c3cccs3)n2)c1)c1cccs1	> 300 °C

---

Reported melting point values are given for each entry in this list.
Counter-ions that a name gives are not always drawn.

COMPOUND	melting point
Cl.NC(=Nc1cccc(-c2c[nH]c(CC/N=C(/N)c3cccs3)n2)c1)c1cccs1	> 245 °C
N=C(Nc1cccc(-c2c[nH]c(CCC3CCCCC3)n2)c1)c1cccs1 (as salt: hydrochloride)	> 191 °C
CNCc1nc(-c2ccc(N=C(N)c3cccs3)cc2)c[nH]1.Cl	> 250 °C
NC(=Nc1cccc(-c2c[nH]c(CNC3CCCCC3)n2)c1)c1cccs1 (as salt: hydrochloride)	> 225 °C
Cl.NC(=Nc1cccc(-c2c[nH]c(CCCC3CCCCC3)n2)c1)c1cccs1	180 to 181 °C
NC(=N[N+](=O)[O-])Nc1ccc(-c2c[nH]c(CCC3CCCCC3)n2)cc1 (as salt: hydrochloride)	185 to 186 °C
Cl.NC(=Nc1ccc(-c2c[nH]c(CN(Cc3ccccc3)Cc3ccccc3)n2)cc1)c1cccs1	150 to 151 °C
CN(Cc1nc(-c2ccc(N=C(N)c3cccs3)cc2)c[nH]1)C1CCCCC1.Cl	240 to 241 °C
Cl.NC(=Nc1ccc(-c2c[nH]c(CNC3CCC3)n2)cc1)c1cccs1	263 to 264 °C
